# Lookup of reported pKd keyed by entry
- Subject Of Test: T1, PDZD7_3, Q9H5P4
- T1 sequence (Q9H5P4 857-944, limits assumed, looked up): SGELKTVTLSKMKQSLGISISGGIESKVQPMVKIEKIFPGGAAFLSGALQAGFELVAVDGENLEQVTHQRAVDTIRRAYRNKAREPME
- Assay Summary: holdup assay
- Design: key: below the threshold = too weak to quantify, mostly under pKd 3.1 to 4
- Settings: plain residues with an end cap or a label only (N-terminal biotin on a linker: ado-ado)
Test Readout: pKd

Binder	Test Readout	Experimental Value
DYSNLRETDI [ADRA1D, P25100]	pKd	4.97
FHSIKQSTAV [CRHR1, P34998]	pKd	4.36
THREVKFTSL [CD46, P15529]	pKd	4.75
IQISELETNV [SLC1A7, O00341]	pKd	4.85
RSPVATATSC [DUSP5, Q16690]	pKd	3.72
KLQNPNQSVV [TYRP1, P17643]	pKd	4.22
STYCDYTIEI [FAM71C, Q8NEG0]	pKd	3.55
IKLETKKTKL [SLC15A2, Q16348]	pKd	4.75
FVFESRKEIL [TBPL1, P62380]	pKd	3.99
SRPHTNETSL [MCC, P23508]	pKd	4.36
QKASRNESTF [POLR1D, P0DPB6]	pKd	3.71
